B1: MMP1 (parent)
chain: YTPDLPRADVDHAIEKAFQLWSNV

# Variants of: B1
# Procedure Text: protein stability index of a GFP-peptide fusion (GPS, HEK-293T) (PSI 1-6); higher = more stable;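 also: lentivirally expressed fusions sorted by FACS into six bins by GFP to DsRed ratio, PSI derived from sequencing read proportions per bin multiplied by bin number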
# Test Settings: c terminus: a fixed tail appended
Param threshold (2) applies to protein stability index; output TRUE when value >= threshold, FALSE when value < threshold.

L20M :: FALSE

Task: Given the entry "R7V" , answer whether its protein stability index meets or surpasses 2.
Output: TRUE

Task: Given the entry "V10P" , answer whether its protein stability index meets or surpasses 2.
Output: FALSE

Task: Given the entry "P3V" , answer whether its protein stability index meets or surpasses 2.
Output: TRUE

Task: Given the entry "V10E" , answer whether its protein stability index meets or surpasses 2.
Output: FALSE

Task: Given the entry "Q19N" , answer whether its protein stability index meets or surpasses 2.
Output: TRUE

Task: Given the entry "H12W" , answer whether its protein stability index meets or surpasses 2.
Output: TRUE
